assayed-target: human KLB and human FGFR1c co-expressed on HEK293/hKLB/hFGFR1c/SRE-luc cells (human, UniProt Q86Z14 1-1044; P11362 22-822)
Sequence (Q86Z14 whole entry, chain 1 of 2): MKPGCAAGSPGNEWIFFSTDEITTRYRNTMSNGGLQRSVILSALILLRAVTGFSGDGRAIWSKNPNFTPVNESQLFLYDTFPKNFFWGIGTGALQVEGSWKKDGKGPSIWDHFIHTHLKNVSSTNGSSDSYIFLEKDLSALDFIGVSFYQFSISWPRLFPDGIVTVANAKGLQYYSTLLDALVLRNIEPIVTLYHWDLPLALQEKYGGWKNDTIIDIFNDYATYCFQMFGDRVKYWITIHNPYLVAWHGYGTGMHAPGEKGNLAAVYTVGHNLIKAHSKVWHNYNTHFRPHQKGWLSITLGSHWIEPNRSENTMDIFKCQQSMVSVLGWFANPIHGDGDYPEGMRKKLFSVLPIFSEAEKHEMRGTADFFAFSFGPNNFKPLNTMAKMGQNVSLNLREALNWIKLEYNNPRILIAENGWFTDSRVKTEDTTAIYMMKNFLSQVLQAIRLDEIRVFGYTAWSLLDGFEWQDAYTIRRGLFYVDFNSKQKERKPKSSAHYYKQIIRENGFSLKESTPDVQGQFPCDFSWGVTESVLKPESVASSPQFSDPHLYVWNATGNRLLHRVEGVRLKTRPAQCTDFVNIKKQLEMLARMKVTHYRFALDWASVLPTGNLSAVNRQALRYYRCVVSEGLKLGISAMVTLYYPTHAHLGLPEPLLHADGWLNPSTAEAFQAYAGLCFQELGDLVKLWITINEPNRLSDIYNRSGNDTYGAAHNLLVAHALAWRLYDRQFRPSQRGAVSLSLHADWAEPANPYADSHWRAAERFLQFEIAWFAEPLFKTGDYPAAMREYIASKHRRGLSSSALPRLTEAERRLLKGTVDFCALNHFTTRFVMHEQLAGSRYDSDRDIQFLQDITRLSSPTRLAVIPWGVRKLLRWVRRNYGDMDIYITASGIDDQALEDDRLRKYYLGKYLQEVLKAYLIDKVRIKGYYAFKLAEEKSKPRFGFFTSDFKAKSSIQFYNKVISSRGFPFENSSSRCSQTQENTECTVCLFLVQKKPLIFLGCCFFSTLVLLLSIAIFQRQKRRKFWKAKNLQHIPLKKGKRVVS
Sequence (P11362 other isoform, or with tags, fused parts or gaps limits assumed, chain 2 of 2): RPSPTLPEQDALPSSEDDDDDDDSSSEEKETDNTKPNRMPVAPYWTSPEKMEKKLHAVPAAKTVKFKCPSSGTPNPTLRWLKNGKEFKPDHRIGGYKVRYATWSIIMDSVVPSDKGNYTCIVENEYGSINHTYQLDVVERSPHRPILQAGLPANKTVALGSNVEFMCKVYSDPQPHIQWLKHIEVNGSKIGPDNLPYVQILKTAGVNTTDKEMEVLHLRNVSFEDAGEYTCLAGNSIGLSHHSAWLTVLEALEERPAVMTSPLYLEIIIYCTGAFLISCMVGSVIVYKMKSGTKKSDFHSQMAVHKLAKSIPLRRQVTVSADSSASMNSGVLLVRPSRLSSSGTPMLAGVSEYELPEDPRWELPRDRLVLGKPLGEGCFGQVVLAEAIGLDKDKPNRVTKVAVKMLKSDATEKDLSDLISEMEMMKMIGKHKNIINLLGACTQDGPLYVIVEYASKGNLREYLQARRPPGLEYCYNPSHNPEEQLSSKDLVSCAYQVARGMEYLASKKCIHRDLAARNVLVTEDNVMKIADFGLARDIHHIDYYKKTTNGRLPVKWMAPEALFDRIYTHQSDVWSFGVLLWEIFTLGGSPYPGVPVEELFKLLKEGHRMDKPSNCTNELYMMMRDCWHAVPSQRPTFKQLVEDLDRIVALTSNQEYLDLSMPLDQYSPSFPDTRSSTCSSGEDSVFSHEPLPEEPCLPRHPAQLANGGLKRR
protocol-summary: cell-based or functional assay
Values of Maximum Activation (%) without ligand strictly less than 1% map to 1, and values of at least 1% map to -1.

binder	class
H2aM8832N (antibody, V domains shown, mouse IgG2 Fc (H2aM prefix)) VH: QVQLVESGGGVVQPGRSLRLSCAASGFTFSRYGMHWVRQAPGKGLEWVAVIWYDGTNKYYEDSLKGRFTISRDNSKNTLYLQMNSLRAEDSAVYYCARDQGKYIDYWGQGTLVTVSS VL: AIQMTQSPSSLSASVGDRVTITCRTSQDIRNDLGWYQQKPGKVPNLLIYAASTLQSGVPSRFSGSGSGTDFTLTISSLQPEDFATYYCLQDYNYPFTFGPGTKVDIK	-1
H1H8900P (antibody, V domains shown, H1H Fc prefix (human Fc)) VH: QVQLVESGGGVVQPGRSLRLSCVASGFTFSSYGMHWVRQAPGKGLEWVAVISFDGSNKYYADSVKGRFTISRDNSKNTLYLQMNSLRPADTAVYYCAKDRSNYYYFGMDVWGQGTTVTVSS VL: DIVMTQTPLSLPVTPGEPASISCRSSQSLLDSDDGNTYLDWYLQKPGQSPQLLIYTLSYRASGVPDRFSGSGSGTDFTLKISRVEAEDVGVYYCMQRIEFPLTFGGGTKVEIK	-1
H1H8898P (antibody, V domains shown, H1H Fc prefix (human Fc)) VH: QVQLVESGGGLVKPGGSLRLSCAASGFIFSDYYMSWIRQAPGKGLDWISYISPSGSTIYYADSVKGRFTISRDNAKNSLYLQMNSLRADDTAVYYCARTGIQLWSVYFDYWGQGTLVTVSS VL: EIVMTQSPATLSVSPGERATLSCRASQSVGSNLAWYQQKPGQAPRLLIYGASTRANGIPARFSGSGSGTEFTLTISGLQSEDFAVYYCQQYNNWPTFGQGTKLEIK	-1
H4H8856P (antibody, V domains shown, human IgG4 Fc (H4H prefix)) VH: QVQLQESGPGLVKPSETLSLTCTVSGGSISSYYWSWIRQPPGKGLEWIAYIYYSGITKYNPSLKSRVTISADTSKNQFSLKLSSVTAADTAVYYCARHGIFGVMEYFQRWGQGTLVTVSS VL: DIQMTQSPSSLSASIGDRVTITCQASQDISNFLNWYQQKPGKAPTLLIYDVSNMETGVPSRFSGSGYGTDFTLTISSLKPEDIATYYCQQYDNIPLTFGGGTKVEIK	-1
H2aM8109N (antibody, V domains shown, mouse IgG2 Fc (H2aM prefix)) VH: QVQVVESGGGVVQPGRSLRLSCAASGFTFSSYGLHWVRQAPGKGLEWVAVIWHDGSHKYYADSVKGRFTISRDNSKNTLYLQMNSLRAEDTAVYYCARDGIPVAEDYYFYGMDVWGQGTTVTVSS VL: DIQMTQSPSSLSASVGDRVTITCRASQGIRNDLGWYQQKPGKAPKRLIYAASSLQSGVPSRFSGSGSGTEFTLTISSLQPEDFAIYYCLQHNSLTFGGGTKVEIK	1

Is the reported Maximum Activation (%) without ligand for H4H8871P (antibody, V domains shown, human IgG4 Fc (H4H prefix)) VH: QVQLQESGPGLVKPSETLSLTCTVSGASISSYYWSWIRQPPGKGLEWIGYIYSSGIIKYNPSLKSRVTISADTSKNQFSLKLSSVTAADTAVYYCARHGIFGVMEYFQRWGQGTLVTVSS VL: DIQMTQSPSSLSASIGDRVTITCQASQDIGNFLNWYHQKPGKAPTLLIYDASNMETGVPSRFRGSGSGTYFTFIISSLQPEDVATYYCQQYDNLPLTFGGGTKVEIK strictly below 1%?
-1
